Some molecules, each annotated with its measured Specific activity of the AAR.
# System: N-acetyl amino acid racemase from Amycolatopsis orientalis subsp. lurida
# assay-details: Detection of racemase activity of recombinant AAR (polarimetric racemization assay)
# Format: biochemical
# measurement-parameters: substrate 25 mM, Tris/HCl 50 mM pH 8.0, cobalt chloride 6 mM, approx 150 μg purified protein, 30° C., 3 to 12 hours, polarimeter λ=365 nm
Answer with a number only, understood to be in mU/mg.

Some molecules with recorded Specific activity of the AAR:
The molecule identified as NC(=O)N[C@H](Cc1ccccc1)C(=O)O [N-Carbamoyl-D-Phe] registered its Specific activity of the AAR at 20

For NC(=O)N[C@@H](Cc1ccc(O)cc1)C(=O)O [N-Carbamoyl-L-Tyr] the molecule record lists Specific activity of the AAR as 62

---
Measured Specific activity of the AAR of CC(C)C[C@H](NC(N)=O)C(=O)O [N-Carbamoyl-L-Leu] : 20

Per the record, CSCC[C@H](NC(N)=O)C(=O)O [N-Carbamoyl-L-Met] has Specific activity of the AAR of 118

Briefly, Specific activity of the AAR measured for CC(C)[C@H](NC(N)=O)C(=O)O [N-Carbamoyl-L-Val] : 20

Form: molecule = CSCC[C@@H](NC(N)=O)C(=O)O [N-Carbamoyl-D-Met] ; Specific activity of the AAR = 155

Data credit: patent US6767725B2
